Tested on: HT29 colon
Assay: NCI-60 one-dose screen, 48 h (100 = growth as untreated, 0 = no growth, -100 = all killed)
Settings: 10 µM unless noted
This is part of a sample that, as a whole, favours compounds with a hit. Of some 83,000 tested, about 20% had one in any assay. Activity calls are given as the source filed them. The calls were made as follows: active = growth percent below 10; inactive = the rest.
outcome measure: growth

Kindly note the recorded growth for Nc1nc2c(c3cnccc13)C(c1cccc(Cl)c1)Cc1cnccc1-2 (centres undefined) , which is 4.99% (active)

Kindly note the recorded growth for O=C(Nc1ccc(-n2cc(-c3ccncc3)c(-c3ccc(Cl)c(O)c3)n2)cc1)c1cc(C(F)(F)F)cc(C(F)(F)F)c1 , which is 11.1% (inactive)

Kindly note the recorded growth for CCC(C)C1NC(=O)C(CCCCN)NC(=O)C(CCCCN)NC(=O)C(CC(C)C)NC(=O)C(CCCCN)NC(=O)C(C(C)CC)NC(=O)C(C(C)C)NC(=O)C(C(C)CC)NC(=O)C(CCCCN)NC(=O)C(CCCCN)NC(=O)C(C)NC(=O)C(CCCCN)NC(=O)C(CC(C)C)NC1=O (centres undefined) , which is 5.52% (active)

Kindly note the recorded growth for O=C(O)c1ccc(-c2nn(-c3ccc(C(=O)O)cc3)cc2CNc2ccc(Br)cc2)cc1 , which is 99% (inactive)

Kindly note the recorded growth for CCCNC(=O)Oc1ccc(/C(=C(/C)Cc2ccc(OC)cc2)c2ccc(OCCN3CCCCC3)cc2)cc1 , which is 28.9% (inactive)

Kindly note the recorded growth for CCCC(=O)NNc1[nH]c(-c2ccc(OC)cc2)cc1C(=O)OCC , which is 110% (inactive)

Kindly note the recorded growth for Cc1ccc(S(=O)(=O)NC(CCC(=O)Nc2ccccc2)C(=O)Nc2ccccc2)cc1 (centres undefined) , which is -14.5% (active)

Kindly note the recorded growth for O=C(Nc1cccc(Cn2c(=O)[nH]c3ccc(Oc4ncccn4)cc3c2=O)c1)c1cc(Cl)cc(Cl)c1 , which is 47.4% (inactive)

Kindly note the recorded growth for CC(=O)NCCN , which is 101% (inactive)

Kindly note the recorded growth for N=C(c1ccccc1)N(Cc1ccccc1)Cc1ccccc1 , which is 53.4% (inactive)

Kindly note the recorded growth for CCS(=O)(=O)OCCO[C@H]1Cc2cc3ccc(=O)oc3cc2OC1(C)C , which is 101% (inactive)

Kindly note the recorded growth for C=CCC(CCC(CC=C)C(=O)OCC)C(=O)OCC (centres undefined) , which is 102% (inactive)

Kindly note the recorded growth for Ic1ccc(SSc2ccc(I)cc2)cc1 , which is 95.3% (inactive)

Kindly note the recorded growth for O=C1/C(=C/c2ccc(Cl)cc2)CCC/C1=C\c1ccc(Cl)cc1 , which is 6.8% (active)

Kindly note the recorded growth for O=C1/C(=C\c2cn(-c3nc(N4CCOCC4)nc(N4CCOCC4)n3)c3ccccc23)c2ccccc2N1c1c(Cl)cccc1Cl , which is 73.9% (inactive)

Kindly note the recorded growth for CCCNC(=O)Oc1ccc(/C(=C(/C)Cc2ccc(OC)cc2)c2ccc(OCCN3CCCC3)cc2)cc1 , which is 0.741% (active)

Kindly note the recorded growth for O=C(N/N=C\c1ccc(-c2ccc(Br)cc2)o1)c1cc2oc(-c3cccc(C(F)(F)F)c3)cc2[nH]1 , which is 110% (inactive)

Kindly note the recorded growth for Clc1ccc(N/N=C/c2ccccn2)nc1 , which is 27.3% (inactive)

Kindly note the recorded growth for CCCCN(CCCC)CC(O)CN(CC)CC (centres undefined) , which is 88% (inactive)
